# pIC50 per record follows
- Tested on: Colon 26
- EXPERIMENT_SUMMARY: Growth inhibition of colon 26 adenocarcinoma cells by 50 %.
- Type: functional, cell-based
- RUN_PARAMETERS: Mus musculus
pIC50: −log10 of the molar value.
REPORTED_METRIC: pIC50

COc1ccc(/C=C(/C#N)c2ccccc2)cc1N	7.44
COc1cc(/C=C\c2ccc(C)c(N)c2)cc(OC)c1OC	7.36
COc1ccc(/C(C#N)=C\c2ccc(OC)c(N)c2)cc1	5.84
COc1cc(/C=C\c2ccc(Cl)c(N)c2)cc(OC)c1OC	7.16
COc1ccc(/C=C(/CO)c2cc(OC)c(OC)c(OC)c2)cc1	6.44
